molecular target: KRAS WT (Homo sapiens (Human), UniProt P01116+P62937); test: Ras-Raf disruption/FRET/MOA assay (BRAF RBD, Cyclophilin A); type: biochemical; conditions: read-out: KRAS WT FRET data IC50
Sequence (P01116 other isoform, or with tags, fused parts or gaps, one chain of several): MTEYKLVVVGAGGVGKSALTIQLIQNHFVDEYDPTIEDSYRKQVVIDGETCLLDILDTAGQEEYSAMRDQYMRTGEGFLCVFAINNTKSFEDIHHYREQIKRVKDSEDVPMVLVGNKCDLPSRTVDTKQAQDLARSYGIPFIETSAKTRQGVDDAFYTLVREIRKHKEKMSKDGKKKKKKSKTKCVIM
pIC50: −log10 of the molar value.
// pIC50 lookup, one value per entry

molecule | pIC50
CCn1c(-c2cccnc2[C@H](C)OC)c2c3cc(ccc31)-c1csc(n1)C[C@H](NC(=O)N1CCOCC1)C(=O)N1CCC[C@H](N1)C(=O)OCC(C)(C)C2 [Compound A270] | 6.00 to 7.00
CCn1c(-c2cccnc2[C@H](C)OC)c2c3cc(ccc31)-c1cc(O)cc(c1)C[C@H](NC(=O)[C@H](C(C)C)N(C)C(=O)[C@@H]1CN(C(=O)OC)C[C@@H]1C)C(=O)N1CCC[C@H](N1)C(=O)OCC(C)(C)C2 [Compound A325] | 7.00 to 8.00
CCn1c(-c2cccnc2[C@H](C)OC)c2c3cc(ccc31)-c1csc(n1)C[C@H](NC(=O)[C@H](C(C)C)N(C)C(=O)N1C[C@@H]3OCCN(C)[C@@H]3C1)C(=O)N1CCC[C@H](N1)C(=O)OCC(C)(C)C2 [Compound A444] | 6.00 to 7.00
CCn1c(-c2cccnc2[C@H](C)OC)c2c3cc(ccc31)-c1csc(n1)C[C@H](NC(=O)[C@H](C(C)C)N(C)C(=O)N1CC(O)(COC)C1)C(=O)N1CCC[C@H](N1)C(=O)OCC(C)(C)C2 [Compound A553] | 6.00 to 7.00
CCn1c(-c2cccnc2[C@H](C)OC)c2c3cc(ccc31)-c1cc(c3cn[nH]c3c1)C[C@H](NC(=O)[C@H](C(C)C)N(C)C(C)=O)C(=O)N1CCC[C@H](N1)C(=O)OCC(C)(C)C2 [Compound A388] | 5.00 to 6.00

According to the records, this molecule CCn1c(-c2cnccc2COC)c2c3cc(ccc31)-c1cc(O)cc(c1)C[C@H](NC(=O)[C@H](C(C)C)N(C)C(=O)[C@H]1CCN(C3COC3)C1)C(=O)N1CCC[C@H](N1)C(=O)OCC(C)(C)C2 [Compound A51] displays pIC50 of 6.00 to 7.00

According to the records, this molecule CCn1c(-c2cccnc2[C@H](C)OC)c2c3cc(ccc31)-c1csc(n1)C[C@H](NC(=O)[C@H](C(C)C)N(C)C(=O)N1C[C@@H](C)N(C)C[C@@H]1C)C(=O)N1CCC[C@H](N1)C(=O)OCC(C)(C)C2 [Compound A292] displays pIC50 of 6.00 to 7.00

According to the records, this molecule CCn1c(-c2cccnc2[C@H](C)OC)c2c3cc(ccc31)-c1csc(n1)C[C@H](NC(=O)[C@H](C(C)C)N(C)C(=O)N1C[C@@H]3C[C@H]1CN3C)C(=O)N1CCC[C@H](N1)C(=O)OCC(C)(C)C2 [Compound A314] displays pIC50 of 6.00 to 7.00

According to the records, this molecule CCn1c(-c2cccnc2[C@H](C)OC)c2c3cc(ccc31)-c1csc(n1)C[C@H](NC(=O)[C@H](C(C)C)N(C)C(=O)N1CC(C3COC3)C1)C(=O)N1CCC[C@H](N1)C(=O)OCC(C)(C)C2 [Compound A298] displays pIC50 of 7.00 to 8.00

###

// pIC50 lookup, one value per entry
biological target: KRAS G12C (Homo sapiens (Human), UniProt P01116+P62937, G12C); test: Ras-Raf disruption/FRET/MOA assay (BRAF RBD, Cyclophilin A); type: biochemical; conditions: read-out: KRAS G12C FRET IC50
Sequence (P01116-2 other isoform, or with tags, fused parts or gaps G12C): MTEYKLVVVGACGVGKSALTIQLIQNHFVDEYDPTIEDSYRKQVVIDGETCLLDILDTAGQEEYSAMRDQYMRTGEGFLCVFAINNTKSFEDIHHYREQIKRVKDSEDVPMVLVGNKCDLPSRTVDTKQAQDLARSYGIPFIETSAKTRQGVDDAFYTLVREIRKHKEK
Sequence (P62937 whole entry): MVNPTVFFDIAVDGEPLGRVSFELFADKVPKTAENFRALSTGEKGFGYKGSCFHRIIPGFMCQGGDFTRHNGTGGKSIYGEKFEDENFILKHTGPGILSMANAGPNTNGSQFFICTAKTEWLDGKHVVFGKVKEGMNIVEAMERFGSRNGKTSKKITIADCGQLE
pIC50: −log10 of the molar value.

molecule | pIC50
CCn1c(-c2cccnc2[C@H](C)OC)c2c3cc(ccc31)-c1csc(n1)C[C@H](NC(=O)[C@H](C(C)C)N(C)C(=O)N1CC3(CCN(C)C3)C1)C(=O)N1CCC[C@H](N1)C(=O)OCC(C)(C)C2 [Compound A602] | 6.00 to 7.00

According to the records, this molecule CCn1c(-c2cccnc2[C@H](C)OC)c2c3cc(ccc31)-c1csc(n1)C[C@H](NC(=O)[C@H](C(C)C)N(C)C(=O)N1CC(S(C)(=O)=O)C1)C(=O)N1CCC[C@H](N1)C(=O)OCC(C)(C)C2 [Compound A383] displays pIC50 of 7.00 to 8.00

###

target: NRAS G12C binding to BRAF RBD (Homo sapiens (Human), UniProt P01111+P62937, G12C); experiment: Ras-Raf disruption/FRET/MOA assay, NRAS G12C
Sequence (P01111 whole entry G12C, one chain of several): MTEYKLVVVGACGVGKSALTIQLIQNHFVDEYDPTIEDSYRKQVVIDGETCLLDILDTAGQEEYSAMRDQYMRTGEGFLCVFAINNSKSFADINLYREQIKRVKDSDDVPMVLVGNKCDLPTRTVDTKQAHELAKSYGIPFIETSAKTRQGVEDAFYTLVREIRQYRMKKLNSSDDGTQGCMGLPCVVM
endpoint: IC50

According to the records, this compound C=CC(=O)N1CC[C@H](C(=O)N(C)[C@H](C(=O)N[C@H]2CC3CN(CCO3)c3ccc4c(c3)c(c(-c3cccnc3[C@H](C)OC)n4CC)CC(C)(C)COC(=O)[C@@H]3CCCN(N3)C2=O)C(C)C)C1 [Compound A378] displays IC50 of 100 to 1000 nM

According to the records, this compound C=CC(=O)N1CC[C@H](C(=O)C2CC[C@H](C)[C@H]2C(=O)N[C@H]2Cc3cccc(c3)-c3ccc4c(c3)c(c(-c3cccnc3[C@H](C)OC)n4CC)CC(C)(C)COC(=O)[C@@H]3CCCN(N3)C2=O)C1 (some centres unmarked) [Compound A494] displays IC50 of 100 to 1000 nM

###

biological target: KRAS G12D (Homo sapiens (Human), UniProt P01116+P62937, G12D); test: Ras-Raf disruption/FRET/MOA assay (BRAF RBD, Cyclophilin A); type: biochemical; details: read-out: KRAS G12D FRET IC50
Sequence (P01116 other isoform, or with tags, fused parts or gaps G12D, one chain of several): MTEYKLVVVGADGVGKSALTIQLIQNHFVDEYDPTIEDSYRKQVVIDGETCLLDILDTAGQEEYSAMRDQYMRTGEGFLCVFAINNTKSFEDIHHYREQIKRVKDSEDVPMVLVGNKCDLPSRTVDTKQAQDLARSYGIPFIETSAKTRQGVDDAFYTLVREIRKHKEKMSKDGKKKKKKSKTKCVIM
// IC50 lookup, one value per entry

// solved cases for IC50 follow
compound smiles | experimental target | result
CCn1c(-c2cccnc2[C@H](C)OC)c2c3cc(ccc31)-c1csc(n1)C[C@H](NC(=O)[C@H](C(C)C)N(C)C(=O)N1CCOC[C@@H]1C)C(=O)N1CCC[C@H](N1)C(=O)OCC(C)(C)C2 | KRAS G12D (Homo sapiens (Human), UniProt P01116+P62937, G12D) | 1000 to 10000 nM
CCn1c(-c2cc(N3CCN(C)CC3)cnc2[C@H](C)OC)c2c3cc(ccc31)-c1csc(n1)C[C@H](NC(=O)[C@H](C(C)C)N(C)C(=O)[C@@H]1CCCS1(=O)=O)C(=O)N1CCC[C@H](N1)C(=O)OCC(C)(C)C2 | KRAS G12D (Homo sapiens (Human), UniProt P01116+P62937, G12D) | 1000 to 10000 nM
CCn1c(-c2cnccc2COC)c2c3cc(ccc31)-c1cc(O)cc(c1)C[C@H](NC(=O)[C@H](C(C)C)N(C)C(=O)N1CCNCC1)C(=O)N1CCC[C@H](N1)C(=O)OCC(C)(C)C2 | KRAS G12D (Homo sapiens (Human), UniProt P01116+P62937, G12D) | 100 to 1000 nM
CCn1c(-c2cccnc2[C@H](C)OC)c2c3cc(ccc31)-c1csc(n1)C[C@H](NC(=O)[C@H](C(C)C)N1CCCC1=O)C(=O)N1CCC[C@H](N1)C(=O)OCC(C)(C)C2 | KRAS G12D (Homo sapiens (Human), UniProt P01116+P62937, G12D) | > 10000 nM

We next turn to a different compound, shown below.
According to the records, this compound CCn1c(-c2cccnc2[C@H](C)OC)c2c3cc(ccc31)-c1csc(n1)C[C@H](NC(=O)C1(F)CC1)C(=O)N1CCC[C@H](N1)C(=O)OCC(C)(C)C2 displays IC50 of 1000 to 10000 nM

###

target: KRAS G12V (Homo sapiens (Human), UniProt P01116+P62937, G12V); test: Ras-Raf disruption/FRET/MOA assay (BRAF RBD, Cyclophilin A); assay type: biochemical; conditions: read-out: KRAS G12V FRET IC50
Sequence (P01116 other isoform, or with tags, fused parts or gaps G12V): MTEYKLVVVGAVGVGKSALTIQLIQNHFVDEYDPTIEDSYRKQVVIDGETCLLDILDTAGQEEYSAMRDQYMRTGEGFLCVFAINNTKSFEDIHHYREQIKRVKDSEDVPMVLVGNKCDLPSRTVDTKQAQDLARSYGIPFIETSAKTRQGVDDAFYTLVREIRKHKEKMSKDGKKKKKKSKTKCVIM
Sequence (P62937 whole entry): as the sequence (P62937 whole entry) above
endpoint: IC50

// solved cases for IC50 follow
compound | IC50
CCn1c(-c2cccnc2[C@H](C)OC)c2c3cc(ccc31)-c1csc(n1)C[C@H](NC(=O)[C@H](C(C)C)N(C)C(=O)N1CC3(CCCN(C)C3=O)C1)C(=O)N1CCC[C@H](N1)C(=O)OCC(C)(C)C2 [Compound A453] | 1000 to 10000 nM
CCn1c(-c2cccnc2[C@H](C)OC)c2c3cc(ccc31)-c1cc(O)cc(c1)C[C@H](NC(=O)[C@H](C(C)C)N(C)C(=O)[C@H]1CCCCNC1)C(=O)N1CCC[C@H](N1)C(=O)OCC(C)(C)C2 [Compound A242] | 100 to 1000 nM
CCn1c(-c2cccnc2[C@H](C)OC)c2c3cc(ccc31)-c1cc(O)cc(c1)C[C@H](NC(=O)[C@H](C(C)C)N(C)C(=O)C13CC(CO1)C3)C(=O)N1CCC[C@H](N1)C(=O)OCC(C)(C)C2 [Compound A406] | 100 to 1000 nM

According to the records, this compound CCn1c(-c2cccnc2[C@H](C)OC)c2c3cc(ccc31)-c1csc(n1)C[C@H](NC(=O)[C@H](C(C)C)N(C)C(=O)N1C[C@@H]3C[C@H]1CN3C)C(=O)N1CCC[C@H](N1)C(=O)OCC(C)(C)C2 [Compound A314] displays IC50 of 100 to 1000 nM
